molecular target: cAMP-dependent protein kinase catalytic subunit alpha (Bos taurus, UniProt P00517); test: CDK Kinase Inhibition Assay; conditions: 25 °C
READOUT NAME: IC50

| CHEMICAL STRING | REPORTED MEASUREMENT |
| --- | --- |
| Cn1ccc2ccc3c4[nH]c5cccc(CO)c5c4c4c(c3c21)C(=O)NC4=O | > 20 µM |

Please give the measured IC50 for this molecule: Cn1ccc2ccc3c4[nH]c5c(CCCN6CCOCC6)cccc5c4c4c(c3c21)C(=O)NC4=O > 20 µM

Please give the measured IC50 for this molecule: COc1ccc2[nH]c3c4ccc5ccn(C)c5c4c4c(c3c2c1)C(=O)NC4=O > 20 µM

Please give the measured IC50 for this molecule: Cn1ccc2ccc3c4[nH]c5cc(F)ccc5c4c4c(c3c21)C(=O)NC4=O > 20 µM

Please give the measured IC50 for this molecule: COc1ccc2c(c1)[nH]c1c3ccc4ccn(C)c4c3c3c(c21)C(=O)NC3=O > 20 µM

Please give the measured IC50 for this molecule: CCc1ccc2c(c1)[nH]c1c3ccc4ccn(C)c4c3c3c(c21)C(=O)NC3=O > 20 µM

Please give the measured IC50 for this molecule: Cc1cc2ccn(C)c2c2c3c(c4c5ccccc5[nH]c4c12)C(=O)NC3=O > 20 µM

Please give the measured IC50 for this molecule: Cn1ccc2ccc3c4[nH]c5cccc(Br)c5c4c4c(c3c21)C(=O)NC4=O > 20 µM

Please give the measured IC50 for this molecule: COc1ccc2c3c4c(c5c(ccc6ccn(C)c65)c3n(CCN3CCC[C@H]3CO)c2c1)C(=O)NC4=O > 20 µM

Please give the measured IC50 for this molecule: O=C1NC(=O)c2c1c1c(ccc3cc[nH]c31)c1[nH]c3ccccc3c21 > 2 µM

Please give the measured IC50 for this molecule: Cc1ccc2c(c1)[nH]c1c3ccc4ccn(C)c4c3c3c(c21)C(=O)NC3=O > 20 µM

Please give the measured IC50 for this molecule: COc1ccc2c3c4c(c5c(ccc6ccn(C)c65)c3n(CCCN3CCOCC3)c2c1)C(=O)NC4=O > 20 µM

Please give the measured IC50 for this molecule: Cc1cc2ccn(C)c2c2c3c(c4c5ccc(C(F)(F)F)cc5[nH]c4c12)C(=O)NC3=O > 20 µM

Please give the measured IC50 for this molecule: Cn1ccc2ccc3c4[nH]c5c(CCN6CCOCC6)cccc5c4c4c(c3c21)C(=O)NC4=O > 20 µM

Please give the measured IC50 for this molecule: CCOc1ccc2c(c1)[nH]c1c3ccc4ccn(C)c4c3c3c(c21)C(=O)NC3=O > 20 µM

Please give the measured IC50 for this molecule: COc1ccc2c3c4c(c5c(ccc6ccn(C)c65)c3n(CCCN3CCSCC3)c2c1)C(=O)NC4=O > 20 µM

Please give the measured IC50 for this molecule: CCn1ccc2ccc3c4[nH]c5ccccc5c4c4c(c3c21)C(=O)NC4=O > 2 µM

Please give the measured IC50 for this molecule: Cn1ccc2ccc3c4[nH]c5cc(Br)ccc5c4c4c(c3c21)C(=O)NC4=O > 20 µM

Please give the measured IC50 for this molecule: O=C1NC(=O)c2c1c1c(ccc3cc[nH]c31)c1c2c2ccccc2n1CCCO > 20 µM
